Entry source: the supplement of paper PMC7877785

experiment: self-splicing fitness, log relative to wild type (ln ratio); higher = more splicing; Tetrahymena group I intron in knt gene, E. coli kanamycin selection, DiMSum; sequences stand for … in CUCUCU…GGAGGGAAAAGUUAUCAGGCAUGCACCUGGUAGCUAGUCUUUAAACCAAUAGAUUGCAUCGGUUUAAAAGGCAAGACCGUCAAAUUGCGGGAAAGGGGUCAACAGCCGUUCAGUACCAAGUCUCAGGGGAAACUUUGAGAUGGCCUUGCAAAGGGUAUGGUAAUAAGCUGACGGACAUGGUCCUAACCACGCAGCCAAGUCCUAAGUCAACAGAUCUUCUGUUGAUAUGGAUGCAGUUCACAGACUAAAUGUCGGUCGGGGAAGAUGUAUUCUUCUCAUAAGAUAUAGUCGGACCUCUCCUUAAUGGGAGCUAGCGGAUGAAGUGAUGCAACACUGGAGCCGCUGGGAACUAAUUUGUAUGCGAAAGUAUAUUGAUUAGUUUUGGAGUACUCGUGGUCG; conditions: 30 °C;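 further: selection with 25 µg/mL kanamycin versus none on LB agar overnight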
Recorded self-splicing fitness (ln), one value per entry.
Endpoint: self-splicing fitness (ln)

INSERT INTO measurements (polymer_sequence, endpoint, val) VALUES
  ('GGGUAGCAAUAUUACGCGGA', 'self-splicing fitness (ln)', -2.64),
  ('AGGUAGCAAUAUUACGAUCG', 'self-splicing fitness (ln)', -0.106),
  ('AUCAAGCAAUAUUACGAUCU', 'self-splicing fitness (ln)', -1.37),
  ('UCUUAGCAAUAUUACGAGUG', 'self-splicing fitness (ln)', -0.964),
  ('CUUCAGCAAUAUUACGGCGU', 'self-splicing fitness (ln)', -4.44),
  ('AAGCAGCAAUAUUACGUGGG', 'self-splicing fitness (ln)', -3.54),
  ('UGCCAGCAAUAUUACGCUAU', 'self-splicing fitness (ln)', -0.882),
  ('UAGCAGCAAUAUUACGCCUU', 'self-splicing fitness (ln)', -0.751),
  ('CACAAGCAAUAUUACGCUCC', 'self-splicing fitness (ln)', -1.93),
  ('GUAUAGCAAUAUUACGCCGG', 'self-splicing fitness (ln)', -2.45),
  ('UAUGAGCAAUAUUACGUCUG', 'self-splicing fitness (ln)', -0.9),
  ('AGGAAGCAAUAUUACGUUAA', 'self-splicing fitness (ln)', -3.22),
  ('GGCAAGCAAUAUUACGGUAC', 'self-splicing fitness (ln)', -0.729),
  ('CGCAAGCAAUAUUACGCGCC', 'self-splicing fitness (ln)', -3.06),
  ('AUUUAGCAAUAUUACGCACC', 'self-splicing fitness (ln)', -1.01),
  ('ACAAAGCAAUAUUACGAGCG', 'self-splicing fitness (ln)', -0.894);
